- Tested on: Coxsackievirus
- Assay remarks: Antiviral activity against Coxsackievirus B3 infected in african green monkey Vero cells assessed as reduction in viral-induced cytopathic effect
- Assay type: functional, organism-based
Metric: pIC50
Quick note: pIC50 values are minus log10 of concentrations in mol/L.

Compound structure	pIC50
O=C(O)C/C=C\[C@@H]1[C@H]2CCCN3CCC[C@@H](CN1S(=O)(=O)c1cc(Br)c(Br)s1)[C@@H]23	4.27

Asked: Given the molecule COC(=O)C/C=C\[C@@H]1[C@H]2CCCN3CCC[C@@H](CN1S(=O)(=O)c1ccccc1[N+](=O)[O-])[C@@H]23 , what is its reported pIC50?
Given back: 5.28

Asked: Given the molecule COC(=O)C/C=C\[C@@H]1[C@H]2CCCN3CCC[C@@H](CN1S(=O)(=O)c1cc(Br)c(Br)s1)[C@@H]23 , what is its reported pIC50?
Given back: 5.92

Asked: Given the molecule COC(=O)C/C=C\[C@@H]1[C@H]2CCCN3CCC[C@@H](CN1S(=O)(=O)c1ccc(C#N)cc1)[C@@H]23 , what is its reported pIC50?
Given back: 5.09

Asked: Given the molecule O=C(O)CCC[C@@H]1[C@H]2CCCN3CCC[C@@H](CN1S(=O)(=O)c1ccc(C(F)(F)F)cc1)[C@@H]23 , what is its reported pIC50?
Given back: 4.12

Asked: Given the molecule N#Cc1cccc(S(=O)(=O)N2C[C@@H]3CCCN4CCC[C@@H]([C@H]34)[C@H]2CCCC(=O)O)c1 , what is its reported pIC50?
Given back: 4.08

Asked: Given the molecule O=[N+]([O-])c1ccccc1S(=O)(=O)N1C[C@@H]2CCCN3CCC[C@@H]([C@H]23)[C@H]1CCCCO , what is its reported pIC50?
Given back: 4.45
